test: Cytotoxicity against MDCK cells assessed as reduction of cell viability; type: cell-based, Canis lupus familiaris; details: dog
Endpoint Label: CC50

1) Nc1ncc(I)c2c1ncn2[C@@H]1C[C@H](O)[C@@H](O)[C@H]1O = > 242 µM
2) Nc1ncc(Br)c2c1ncn2[C@@H]1C[C@H](O)[C@@H](O)[C@H]1O = > 273 µM
3) Nc1ncc(Cl)c2c1ncn2[C@@H]1C[C@H](O)[C@@H](O)[C@H]1O = > 311 µM

====

assay: Selectivity index, ratio of CC50 for MDCK cells to EC50 for influenza A virus H5N1; type: toxicity, cell-based; details: dog, read-out: Ratio CC50/EC50
Endpoint Label: selectivity ratio

1) Nc1ncc(I)c2c1ncn2[C@@H]1C[C@H](O)[C@@H](O)[C@H]1O = > 6
2) Nc1ncc(Cl)c2c1ncn2[C@@H]1C[C@H](O)[C@@H](O)[C@H]1O = > 77

====

assay: Selectivity index, ratio of CC50 for human HFF cells to EC50 for human cytomegalovirus; assay type: toxicity, cell-based; settings: read-out: Ratio CC50/EC50
Endpoint Label: selectivity ratio

1. Nc1ncc(I)c2c1ncn2[C@@H]1C[C@H](O)[C@@H](O)[C@H]1O = 182

====

test system: Dengue virus; test: Antiviral activity against Dengue virus infected in african green monkey Vero cells assessed as reduction of viral replication; type: functional, organism-based
Active and inactive are the calls of the source. The calls are words filed in the database; no cut-off is given here.
Endpoint Label: Activity

1) Cc1cnc(N)c2ncn([C@@H]3C[C@H](O)[C@@H](O)[C@H]3O)c12 = inactive
2) Nc1ncc(Br)c2c1ncn2[C@@H]1C[C@H](O)[C@@H](O)[C@H]1O = inactive
3) Nc1ncc(I)c2c1ncn2[C@@H]1C[C@H](O)[C@@H](O)[C@H]1O = inactive
4) Nc1ncc(Cl)c2c1ncn2[C@@H]1C[C@H](O)[C@@H](O)[C@H]1O = inactive

====

test system: Enterovirus; experiment: Antiviral activity against Rhinovirus infected in human HeLa Ohio1 cells assessed as reduction of viral replication; assay type: functional, organism-based
Active and inactive are the calls of the source. The rule behind the calls is not given here.
Endpoint Label: Activity

1. Cc1cnc(N)c2ncn([C@@H]3C[C@H](O)[C@@H](O)[C@H]3O)c12 = inactive
2. Nc1ncc(Br)c2c1ncn2[C@@H]1C[C@H](O)[C@@H](O)[C@H]1O = inactive
3. Nc1ncc(Cl)c2c1ncn2[C@@H]1C[C@H](O)[C@@H](O)[C@H]1O = inactive
4. Nc1ncc(I)c2c1ncn2[C@@H]1C[C@H](O)[C@@H](O)[C@H]1O = inactive

====

assay: Selectivity index, ratio of CC50 for human HFF cells to EC50 for Varicella-zoster virus; assay type: toxicity, cell-based; details: read-out: Ratio CC50/EC50
Measured selectivity ratio by item
Endpoint Label: selectivity ratio

1. Nc1ncc(I)c2c1ncn2[C@@H]1C[C@H](O)[C@@H](O)[C@H]1O = < 3.4
2. Nc1ncc(Br)c2c1ncn2[C@@H]1C[C@H](O)[C@@H](O)[C@H]1O = > 2630

====

test: Selectivity index, ratio of CC50 for MDCK cells to EC50 for influenza B virus; format: toxicity, cell-based; conditions: dog, read-out: Ratio CC50/EC50
Measured selectivity ratio by item
Endpoint Label: selectivity ratio

1) Nc1ncc(Br)c2c1ncn2[C@@H]1C[C@H](O)[C@@H](O)[C@H]1O = > 100
2) Nc1ncc(Cl)c2c1ncn2[C@@H]1C[C@H](O)[C@@H](O)[C@H]1O = > 500
3) Nc1ncc(I)c2c1ncn2[C@@H]1C[C@H](O)[C@@H](O)[C@H]1O = > 111

====

Measured CC50 by item
test: Cytotoxicity against african green monkey CV1 cells assessed as reduction of cell viability; assay type: cell-based, CV-1; details: chlorocebus aethiops
Endpoint Label: CC50 (µM)

1) Nc1ncc(I)c2c1ncn2[C@@H]1C[C@H](O)[C@@H](O)[C@H]1O = 67
2) Nc1ncc(Cl)c2c1ncn2[C@@H]1C[C@H](O)[C@@H](O)[C@H]1O = 311
